Data credit: PubChem BioAssay (NCI)

Tested on: OVCAR-8 ovarian
Assay: NCI-60 one-dose screen, 48 h (100 = growth as untreated, 0 = no growth, -100 = all killed)
Settings: 10 µM
Protocol: Growth inhibition of the OVCAR-8 human tumor cell line is measured as a screen for anti-cancer activity. Cells are grown in 96 well plates and exposed to the test compound for 48 hours. Compounds are tested at a single concentration, which is 10^-5 M for most compounds. The reported endpoint is percent growth (GI% or GIPRCNT), where numbers from 0 - 100% represent growth inhibition, and numbers from -100% - 0 represent cell death. For example, a value of 40 represents 60% growth inhibition. […]
Compounds without any hit were thinned out: in the full panel of roughly 83,000, 20% have a hit.
Label key: yes means growth under 90%; no means growth of 90% or more.

Consider the worked cases shown below.
COc1cc(C(=C2O[C@@H]([C@H]3COC(C)(C)O3)[C@H]3OC(C)(C)O[C@@H]23)c2cc(OC)c(OC)c(OC)c2)cc(OC)c1OC: no
CCCC#CCN(CC)CC: no
Clc1ccc2c(NCCCNc3nccc(Nc4ccc(Br)cc4)n3)ccnc2c1: yes
c1ccc(CO[C@H]2CO[C@H]3[C@@H]2OC[C@H]3OCc2ccccc2)cc1: no
CC(=O)c1cc(Br)ccc1O: no
c1ccc2c(-c3nc(N4CCOCC4)c4c5c(sc4n3)CCCCCC5)cccc2c1: no
O=C1Nc2ccc(Cl)cc2/C1=C\c1c(-c2ccc(Cl)cc2)nc2sc(C3CC3)nn12: yes
COc1ccc2nc3ccccc3c(NCCNCC(C)O)c2c1 (stereo not given): yes
COc1ccc(-c2csc(NC(=O)CSc3nc(C)c(-c4ccccc4)n3Nc3ccccc3)n2)cc1: yes

Hi there! Is growth for `Fc1cc(C(F)(F)F)ccc1-c1cncnc1NC1CCCCCC1` below 90%, do you know? yes

###

Record form. Attribute: growth. Fill in for each entry.
tested on: OVCAR-3 ovarian; assay: NCI-60 one-dose screen, 48 h (100 = growth as untreated, 0 = no growth, -100 = all killed); settings: 10 µM
About 83,000 compounds went through this panel and 20% of them were active in at least one assay; those are over-represented in the sample as a whole. The source made the active and inactive calls. The calls were made as follows: active = growth percent below 10; inactive = the rest.

Please review the entries below; each comes with its answer.
CN(Cc1ccccc1)Cc1ccc([N+](=O)[O-])cc1I: 98.9% (inactive)
O=C(N/N=C/c1cc2ccccc2c2ccccc12)c1cc(O)c(O)c(O)c1: 58% (inactive)
COc1cc(/C=C\c2cc(OC)c(OC)c(OC)c2)cc(NS(=O)(=O)c2ccc(Cl)cc2)c1OC: 10.3% (inactive)
CCc1ccc2c(c1)N(CCO)C1=C(C(=O)OC1)C2c1ccccc1 (stereo unspecified): 111% (inactive)
CN(C)CCOc1nc2ccccc2c2c1-c1ccc(Cl)cc1C2=O: -21.4% (active)
Cc1cc(N(CCCNc2ccnc3cc(Cl)ccc23)Cc2ccc3c(c2)OCO3)nc(N2CCOCC2)n1: -6.27% (active)
O=C1/C(=C\c2ccccc2)CN(C(=O)c2ccccc2F)C/C1=C\c1ccccc1: -20.1% (active)
COc1cc(Nc2ncnc(Nc3ccc4c(n3)NC(=O)C(C)(C)O4)n2)cc(OC)c1OC: 35.9% (inactive)

// for each compound below, give its growth
1. NC1(C(=O)O)CSSC1
2. O=C1OCC2=C1C(c1cccc(Cl)c1)c1cc3c(cc1N2CCO)OCO3 (stereo unspecified)

1: 93% (inactive); 2: -50.6% (active)

Fill in growth for each of the 7 compounds listed.
1. CCN(CC)CCC(CNc1c(C)cnc2cc(Cl)ccc12)c1ccc(Cl)cc1 (stereo unspecified)
2. CC(C)(C#N)Nc1ccccc1
3. COc1ccc2c(c1)N(CCO)C1=C(C(=O)OC1)C2c1ccc(OC)c(OC)c1 (stereo unspecified)
4. Nc1ccn(C2CC(O)C(CO)O2)c(=O)n1 (stereo unspecified)
5. CCCCCCCCCCCCCCCCN(C(C)c1ccccc1)S(=O)(=O)c1ccc(OC)c(N)c1 (stereo unspecified)
6. O=S(=O)(NCCNc1nccc(-c2c(-c3ccc(F)cc3)nc3sccn23)n1)c1ccc2ccccc2c1
7. CC(=O)N1C/C(=C/c2ccc(Cl)cc2)C(=O)/C(=C/c2ccc(Cl)cc2)C1

1: 70.8% (inactive); 2: 124% (inactive); 3: -18.2% (active); 4: 123% (inactive); 5: 107% (inactive); 6: 87.9% (inactive); 7: -40.6% (active)

Give growth for each listed item.
1. O=C1/C(=C\c2cn(C(=O)c3ccc(Cl)cc3)c3ccccc23)c2ccccc2N1C(=O)c1ccc(Cl)cc1
2. COc1ccc(Cl)cc1C(=O)Nc1nc2ccc(Cl)cc2s1

84.3% (inactive)
103% (inactive)

# map each compound to its growth
1. N#Cc1ncc(-c2ccc(C(F)(F)F)cc2)c(NCc2cc(C(F)(F)F)cc(C(F)(F)F)c2)n1
2. Cc1ncc(-c2ccoc2)c(NC2CCCCCC2)n1

11.4% (inactive)
101% (inactive)
